# procedure_text: physchem
# details: 37 °C, pH 6.5, thermodynamic from solid, Apparent solubility, micellar

molecule: CC(=O)O[C@H]1CC[C@@]2(C)C(=CC[C@@H]3[C@@H]2CC[C@]2(C)C(c4cccnc4)=CC[C@@H]32)C1 [abiraterone acetate]
solubility at 24 h / µM: 2110

====

# procedure_text: Apparent solubility, shake flask method in simulated intestinal media
# details: FeSSIF*-E, total sample (micellar + lipid layer), 37 °C, pH 6.5, thermodynamic from solid, total sample (micellar + lipid layer), FeSSIF*-E, pH 6.5, 37 °C, mean ± SD (n = 3)

compound: C[C@]12CC[C@H](O)CC1=CC[C@@H]1[C@@H]2CC[C@]2(C)C(c3cccnc3)=CC[C@@H]12 [abiraterone]
unit_tag: µM
solubility at 24 h: 39

====

# procedure_text: Apparent solubility, shake flask method in simulated intestinal media
# details: FeSSIF*-Th, total sample (micellar + lipid layer), 37 °C, pH 6.5, thermodynamic from solid, total sample (micellar + lipid layer), FeSSIF*-Th, pH 6.5, 37 °C, mean ± SD (n = 3)
measured_property: solubility at 24 h (µM)

line_notation: C[C@]12CC[C@H](O)CC1=CC[C@@H]1[C@@H]2CC[C@]2(C)C(c3cccnc3)=CC[C@@H]12
unit_tag: µM
numeric_result: 50

====

# procedure_text: physchem
# details: 37 °C, pH 6.5, fessif, thermodynamic from solid, Apparent solubility, micellar

compound: CC(=O)O[C@H]1CC[C@@]2(C)C(=CC[C@@H]3[C@@H]2CC[C@]2(C)C(c4cccnc4)=CC[C@@H]32)C1 [abiraterone acetate]
unit_tag: µM
solubility at 24 h: 148

====

# procedure_text: Apparent solubility, shake flask method in simulated intestinal media
# details: FeSSIF*-FM, micellar, 37 °C, pH 6.5, thermodynamic from solid, pH 6.5, 37 °C, mean ± SD (n = 3)

compound: C[C@]12CC[C@H](O)CC1=CC[C@@H]1[C@@H]2CC[C@]2(C)C(c3cccnc3)=CC[C@@H]12 [abiraterone]
solubility at 24 h: 176 µM

====

# procedure_text: Apparent solubility, shake flask method in simulated intestinal media
# details: FeSSIF*-FMTh, total sample (micellar + lipid layer), 37 °C, pH 6.5, thermodynamic from solid, total sample (micellar + lipid layer), FeSSIF*-FMTh, pH 6.5, 37 °C, mean ± SD (n = 3)
measured_property: solubility at 24 h (µM)

compound: C[C@]12CC[C@H](O)CC1=CC[C@@H]1[C@@H]2CC[C@]2(C)C(c3cccnc3)=CC[C@@H]12 [abiraterone]
unit_tag: µM
numeric_result: 221

====

# procedure_text: Apparent solubility, shake flask method in simulated intestinal media
# details: FeSSIF*-FMT, total sample (micellar + lipid layer), 37 °C, pH 6.5, thermodynamic from solid, total sample (micellar + lipid layer), FeSSIF*-FMT, pH 6.5, 37 °C, mean ± SD (n = 3)

compound: C[C@]12CC[C@H](O)CC1=CC[C@@H]1[C@@H]2CC[C@]2(C)C(c3cccnc3)=CC[C@@H]12 [abiraterone]
solubility at 24 h [µM]: 199
